- target under test: sigma receptors (Cavia porcellus, UniProt Q60492)
- Construct: crude synaptosomal (P2) membrane fraction of guinea pig brain for sigma receptors; tissue Pel-Freeze, Rogers, Ak; host or cells: guinea pig brain minus cerebellum, crude synaptosomal (P2) membranes
- Sequence (Q60492 whole entry): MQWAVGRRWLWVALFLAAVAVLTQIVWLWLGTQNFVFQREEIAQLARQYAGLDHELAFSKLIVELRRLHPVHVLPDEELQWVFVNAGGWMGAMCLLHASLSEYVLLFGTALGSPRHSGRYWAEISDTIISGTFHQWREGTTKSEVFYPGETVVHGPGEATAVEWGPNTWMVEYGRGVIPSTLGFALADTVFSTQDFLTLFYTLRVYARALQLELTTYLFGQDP
- assay explanation: Radioreceptor assay in guinea pig brain homogenate (P2 membranes), [3H]-(+)-3-PPP
- Assay type: binding
pKi: −log10 of the molar value.
measurement label: pKi

> print(dat)
                                    compound  reported.value
 1  CCCN(CCc1ccc(Cl)c(Cl)c1)[C@H]1CCCC[C@H]1N1CCCC1 [compound 16]            6.85
 2  CCCN(CCc1ccc(Cl)c(Cl)c1)[C@@H]1CCCC[C@@H]1N1CCCC1 [compound 4]            7.25
 3  CN(CCc1ccc2c(c1)OCO2)[C@H]1CCCC[C@H]1N1CCCC1 [compound 11]            7.05
 4  CN(CCc1ccc2c(c1)OCO2)[C@@H]1CCCC[C@@H]1N1CCCC1 [compound 12]            7.51
 5  CCN(CCc1ccc(Cl)c(Cl)c1)[C@H]1CCCC[C@H]1N1CCCC1 [compound 14]            8.51
 6  CN(CCc1ccc(Cl)c(Cl)c1)[C@H]1CCCC[C@H]1N1CCCC1 [Compound No. 7]            8.89
 7  CN(Cc1ccc(Cl)c(Cl)c1)[C@@H]1CCCC[C@@H]1N1CCCC1 (relative stereo) [compound 17]            8.92
 8  CN(CCc1ccc(Cl)c(Cl)c1)[C@@H]1CCCC[C@@H]1N1CCCC1 (racemic) [Compound No. 1]            8.74
 9  CN(CCc1ccc(Cl)c(Cl)c1)[C@@H]1CCCC[C@@H]1N1CCCC1 [Compound No. 8]            8.22
10  CCN(CCc1ccc(Cl)c(Cl)c1)[C@@H]1CCCC[C@@H]1N1CCCC1 [compound 5]            8.46
11  CN(CCc1ccccc1)[C@@H]1CCCC[C@@H]1N1CCCC1 (racemic) [compound 9]            6.95

====

- target under test: sigma receptors (Cavia porcellus)
- Construct: crude synaptosomal (P2) membrane fraction of guinea pig brain for sigma receptors; tissue Pel-Freeze, Rogers, Ak; host or cells: guinea pig brain minus cerebellum, crude synaptosomal (P2) membranes
- assay explanation: Radioreceptor assay in guinea pig brain homogenate (P2 membranes), [3H]-(+)-3-PPP
- Format: binding
- conditions used: guinea pig brain P2 membranes; 3 nM [3H]-3-PPP; pH 8.0, 120 min, 25° C.; units ± SEM; read-out: Ki
measurement label: Ki (nM)

> print(dat)
                                   compound  measurement.label  measurement.units  reported.value
1  CN(CCc1ccc2ccccc2c1)[C@@H]1CCCC[C@@H]1N1CCCC1 (racemic) [compound 10]                 Ki                 nM              33

====

- target under test: sigma receptor (Rattus norvegicus, UniProt Q9R0C9)
- Sequence (Q9R0C9 whole entry): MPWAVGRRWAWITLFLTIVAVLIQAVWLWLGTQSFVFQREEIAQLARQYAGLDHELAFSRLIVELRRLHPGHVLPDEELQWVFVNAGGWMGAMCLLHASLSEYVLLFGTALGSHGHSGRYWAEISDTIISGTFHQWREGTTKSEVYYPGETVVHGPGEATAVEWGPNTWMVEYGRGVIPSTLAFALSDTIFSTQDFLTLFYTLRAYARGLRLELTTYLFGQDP
pKi: −log10 of the molar value.
Quick reference: pKi of the listed items.
measurement label: pKi

> print(dat)
                                   compound  reported.value
1  CN(CCc1ccc(Cl)c(Cl)c1)[C@@H]1CCCC[C@@H]1N1CCCC1 (racemic) [Compound No. 1]            6.64
2  CN(CCc1ccc(Cl)c(Cl)c1)[C@@H]1CCCC[C@@H]1N1CCCC1 [Compound No. 8]            7.70
3  CN(CCc1ccc(Cl)c(Cl)c1)[C@H]1CCCC[C@H]1N1CCCC1            7.52
